Form field: IC50 (one value per entry).
Target: H^+ +K^+ ATPase (Sus scrofa, UniProt P19156)
Construct: prepared from porcine stomach
Sequence (P19156 2-1034 limits assumed): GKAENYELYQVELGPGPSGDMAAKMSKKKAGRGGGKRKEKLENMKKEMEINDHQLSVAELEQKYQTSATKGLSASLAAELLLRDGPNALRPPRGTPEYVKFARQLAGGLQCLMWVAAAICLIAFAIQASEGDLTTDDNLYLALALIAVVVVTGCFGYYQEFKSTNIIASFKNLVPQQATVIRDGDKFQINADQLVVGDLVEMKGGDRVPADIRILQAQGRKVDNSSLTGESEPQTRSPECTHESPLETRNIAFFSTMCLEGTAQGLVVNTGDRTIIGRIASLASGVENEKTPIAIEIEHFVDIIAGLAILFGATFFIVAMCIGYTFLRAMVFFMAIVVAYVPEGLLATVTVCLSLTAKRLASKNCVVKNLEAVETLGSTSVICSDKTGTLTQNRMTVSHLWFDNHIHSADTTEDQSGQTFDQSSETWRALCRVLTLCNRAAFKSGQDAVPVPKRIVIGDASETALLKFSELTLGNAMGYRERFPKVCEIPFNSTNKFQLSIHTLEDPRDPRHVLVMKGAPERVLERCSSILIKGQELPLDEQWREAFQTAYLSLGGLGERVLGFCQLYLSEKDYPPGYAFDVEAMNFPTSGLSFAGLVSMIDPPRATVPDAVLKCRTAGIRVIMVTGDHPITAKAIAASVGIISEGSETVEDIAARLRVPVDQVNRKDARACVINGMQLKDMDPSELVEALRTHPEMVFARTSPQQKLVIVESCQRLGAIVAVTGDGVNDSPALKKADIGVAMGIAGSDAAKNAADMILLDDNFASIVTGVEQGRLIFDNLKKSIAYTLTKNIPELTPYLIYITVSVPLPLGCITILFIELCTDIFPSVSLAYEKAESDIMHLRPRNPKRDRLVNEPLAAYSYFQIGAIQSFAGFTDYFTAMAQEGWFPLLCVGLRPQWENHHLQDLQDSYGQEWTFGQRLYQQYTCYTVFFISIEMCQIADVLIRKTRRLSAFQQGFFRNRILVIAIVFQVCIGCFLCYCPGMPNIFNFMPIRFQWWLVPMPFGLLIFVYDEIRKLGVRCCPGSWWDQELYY
Sequence (P18434 whole entry partner): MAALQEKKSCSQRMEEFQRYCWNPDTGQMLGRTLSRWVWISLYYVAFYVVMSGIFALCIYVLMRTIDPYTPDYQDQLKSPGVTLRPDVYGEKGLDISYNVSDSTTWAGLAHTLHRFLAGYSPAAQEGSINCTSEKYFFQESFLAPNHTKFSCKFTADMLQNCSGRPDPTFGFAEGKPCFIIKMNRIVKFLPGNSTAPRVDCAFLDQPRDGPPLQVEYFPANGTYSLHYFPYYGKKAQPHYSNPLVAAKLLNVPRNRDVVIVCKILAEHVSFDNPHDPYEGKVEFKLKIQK
Experiment: H+ +K+ ATPase inhibition (inorganic phosphoric acid release)
Conditions: enzyme prepared from porcine stomach; 30 min with compound at room temperature, pH 6.1; then 30 min at 37° C., pH 7.4, 20 mM KCl
Provide only the numeric value, understood in nM.

1. CCN1CCC(c2ccccc2)c2cccc(C[S+]([O-])c3nc4ccc(C)cc4[nH]3)c21 (stereo not shown) [Test compound No. 47] | 1500
2. CCN1CC(C)(C)C(OC)c2cccc(C[S+]([O-])c3nc4ccc(C)cc4[nH]3)c21 (stereo not shown) [Test compound No. 66] | 330
3. CCN1CCC(N(C)C(C)=O)c2cccc(C[S+]([O-])c3nc4ccccc4[nH]3)c21 (stereo not shown) [Test compound No. 59] | 5700

Query string: Can you share its IC50? I mean this compound: CCN1CCCc2cccc(C[S+]([O-])c3nc4cc(OC)c(F)cc4[nH]3)c21 (stereo not shown) [Test compound No. 6]
Result string: 620
